Hey, just so you know, these numbers are from PubChem BioAssay (NCI).

Tested on: K-562 leukemia
MEASUREMENT_PROTOCOL: NCI tumour cell line growth inhibition, 48 h; in the data active means GI50 below about 0.43 µM; inactive means the rest
Respond with a class label; see active, inactive

Recorded results for 3 molecules are shown here.
CCn1c(-c2nonc2N)nc2c(C#CCN)ncc(OCCCN)c21    inactive
N#Cc1c(NC(=O)c2cccc(C(F)(F)F)c2)sc2c1CCC(=O)C2    active
COc1cc2ncn(-c3cc(OCc4ccccc4Cl)c(C(N)=O)s3)c2cc1OC    active

Test call for this molecule, please: COC1(C(=O)N2Cc3nc(Cl)nc(N[C@H](C)c4cc(N)cc(C(F)(F)F)c4)c3C2)CCOCC1
inactive

Try the molecule COc1ccc(C(=S)N2CCN(c3cccc(Cl)c3)CC2)cc1
inactive

Try the molecule CN1CCN(CC#Cc2cccc(C(=O)c3cnn(-c4ccc(F)cc4)c3N)c2)CC1
inactive

Try the molecule C#Cc1ccc(-n2c(/C=C/c3ccc(Cl)c(F)c3)nc3ncccc3c2=O)cc1
active
